Recorded values, source paper PMC8119466.

Catalogue of % Phosphatase Activity (compared to DMSO) PRL-2 values
- assay_system: recombinant PRL-2 (Homo sapiens)
- Construct: 6xHis (N, cleaved yes); made in house; host or cells: E. coli One Shot BL21 Star
- Sequence (Q12974 whole entry): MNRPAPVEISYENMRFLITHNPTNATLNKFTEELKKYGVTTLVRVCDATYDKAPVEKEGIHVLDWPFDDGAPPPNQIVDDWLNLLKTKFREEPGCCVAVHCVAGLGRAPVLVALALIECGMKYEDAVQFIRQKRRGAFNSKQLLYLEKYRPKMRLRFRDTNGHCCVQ
- assay_info: In vitro phosphatase assay (DiFMUP hydrolysis), PRL-2;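 further: PRL-2 activity read as DiFMUP hydrolysis after 20 min at room temperature with drug, enzyme first pre-reduced at 4 °C for 20 min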
- Assay type: biochemical
- study_conditions: FDA-approved drug screen; compared to DMSO
Structures can show the parent of a compound that is named as a salt.
value_kind: % Phosphatase Activity (compared to DMSO) PRL-2 (%)

{"columns": ["compound", "assay_result"],
 "data": [
  ["O=c1[nH]c(=O)n([C@H]2C[C@H](O)[C@@H](CO)O2)cc1I", 103],
  ["Nc1nc(N)nc(NC2CC2)n1", 101],
  ["Nc1ccc(S(=O)(=O)c2ccc(N)cc2)cc1", 100],
  ["C=C1c2cccc(O)c2C(=O)C2=C(O)[C@]3(O)C(=O)C(C(N)=O)=C(O)[C@@H](N(C)C)[C@@H]3[C@@H](O)[C@H]12 [Methacycline HCl]", 65],
  ["CN1[C@@H]2CC[C@H]1C[C@@H](OC(c1ccccc1)c1ccccc1)C2 [Benztropine mesylate]", 106],
  ["O=C(CCCN1CCC(O)(c2ccc(Cl)cc2)CC1)c1ccc(F)cc1", 100],
  ["COC(c1ccccc1)(c1ccccc1)[C@H](Oc1nc(C)cc(C)n1)C(=O)O", 99],
  ["Cc1cc(NC(=O)C2=C(O)c3ccccc3S(=O)(=O)N2C)no1", 91],
  ["CN(C)C(=O)C(CCN1CCC(O)(c2ccc(Cl)cc2)CC1)(c1ccccc1)c1ccccc1 [Loperamide HCl]", 99],
  ["Nc1nc(Cl)nc2c1ncn2[C@@H]1O[C@H](CO)[C@@H](O)[C@@H]1F", 100],
  ["Nc1nc(O)c2ncn(COC(CO)CO)c2n1", 98],
  ["CC(=O)c1c(C)c2cnc(Nc3ccc(N4CCNCC4)cn3)nc2n(C2CCCC2)c1=O.O=S(=O)(O)CCO [Palbociclib (PD0332991) Isethionate]", 61],
  ["O=S(=O)(O)CCS", 93],
  ["CNS(=O)(=O)C[C@H]1CC[C@H](N(C)c2ncnc3[nH]ccc23)CC1", 81],
  ["CCOC(=O)c1ccc(OC(=O)CCCCCN=C(N)N)cc1.CS(=O)(=O)O [Gabexate Mesylate]", 103],
  ["CCCC1O[C@@H]2C[C@H]3[C@@H]4CCC5=CC(=O)C=C[C@]5(C)[C@H]4[C@@H](O)C[C@]3(C)[C@]2(C(=O)CO)O1 (stereo partly drawn) [Budesonide]", 100],
  ["CCCN(CCc1cccs1)[C@H]1CCc2c(O)cccc2C1", 99],
  ["C[C@H](O)C(=O)Nc1c(I)c(C(=O)NC(CO)CO)c(I)c(C(=O)NC(CO)CO)c1I", 98],
  ["CCN(CCO)CCCOc1ccc2c(Nc3cc(CC(=O)Nc4cccc(F)c4)[nH]n3)ncnc2c1", 95],
  ["CC[C@H](C)[C@H]1O[C@]2(CC[C@@H]1C)C[C@@H]1C[C@@H](C/C=C(\\C)[C@@H](O[C@H]3C[C@H](OC)[C@@H](O[C@H]4C[C@H](OC)[C@@H](O)[C@H](C)O4)[C@H](C)O3)[C@@H](C)/C=C/C=C3\\CO[C@@H]4[C@H](O)C(C)=C[C@@H](C(=O)O1)[C@]34O)O2", 102],
  ["O=[N+]([O-])O[C@@H]1CO[C@H]2[C@@H]1OC[C@@H]2O [Isosorbide Mononitrate]", 85]
]}
